target-system: human OCT1 (Homo sapiens)
Sequence (O15245 whole entry): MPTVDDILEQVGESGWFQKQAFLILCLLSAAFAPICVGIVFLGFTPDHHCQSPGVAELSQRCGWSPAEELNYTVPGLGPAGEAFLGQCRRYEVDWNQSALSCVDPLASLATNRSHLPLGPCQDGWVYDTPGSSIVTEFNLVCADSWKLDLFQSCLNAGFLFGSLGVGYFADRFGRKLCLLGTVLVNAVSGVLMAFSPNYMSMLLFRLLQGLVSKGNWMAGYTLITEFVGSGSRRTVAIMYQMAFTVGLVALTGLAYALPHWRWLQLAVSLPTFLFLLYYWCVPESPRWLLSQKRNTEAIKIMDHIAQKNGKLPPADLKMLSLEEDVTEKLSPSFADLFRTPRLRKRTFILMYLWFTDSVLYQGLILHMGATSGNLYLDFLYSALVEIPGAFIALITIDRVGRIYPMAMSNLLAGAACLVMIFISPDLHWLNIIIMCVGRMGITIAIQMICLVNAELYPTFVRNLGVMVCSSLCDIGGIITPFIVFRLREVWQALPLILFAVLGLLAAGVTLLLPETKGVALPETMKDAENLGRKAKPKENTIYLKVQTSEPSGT
procedure-details: in vitro
condition-summary: pH 7.4
measurement-kind: Km (µM)
Your answer is read as µM, so omit the unit and give the number.

INPUT: Give me measured Km, please, for this molecule: CC[N+](CC)(CC)CC
OUTPUT: 749
